assay: BSK_3C_Vis: BioMAP Diversity Plus: 3C Assay for Morphology Visualization (AID 2283025); details: primary human endothelial cells (HUVEC);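 further: fitted both ways so gain or loss versus DMSO counts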;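 on AC50: light microscopy image of cell morphology used as background control; cells imaged 24 h after dosing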
The source made the active and inactive calls. How the source made its calls: active means hit-call score of the fitted dose curve at least 0.9, where 1 is the maximum; inactive means score below 0.9.
MEASURED_METRIC: AC50

- COMPOUND: "C#C[C@]1(O)CC[C@H]2[C@@H]3CCc4cc(OC)ccc4[C@H]3CC[C@@]21C"
  MEASURED_VALUE: "37.5 µM (active)"
- COMPOUND: "CO[Si](OC)(c1ccccc1)c1ccccc1"
  MEASURED_VALUE: "37.4 µM (active)"
- COMPOUND: "CC(CCl)OP(=O)(OC(C)CCl)OC(C)CCl (configuration not stated)"
  MEASURED_VALUE: "inactive"
- COMPOUND: "Oc1ccc(Nc2ccccc2)cc1"
  MEASURED_VALUE: "inactive"
- COMPOUND: "CCN(CC)c1ccc2c(C)cc(=O)oc2c1"
  MEASURED_VALUE: "37.5 µM (active)"
- COMPOUND: "CCCCOCCOCCOC(=O)CCCCC(=O)OCCOCCOCCCC"
  MEASURED_VALUE: "inactive"

// switching to the query compound
Task item: Quick check: AC50 of "CCCCCCCCCCCCCCCC[N+](C)(C)Cc1ccccc1" ?
Reply: 2.96 µM (active)

----------
read-out: Vascular cell adhesion molecule 1 (VCAM1), VCAM1 (gene 7412); assay: BSK_CASM3C_VCAM1: BioMAP Diversity Plus: CASM3C Assay for Vascular cell adhesion molecule 1 (VCAM1) Biomarker Activity (AID 2283055); conditions: primary human coronary artery smooth muscle cells; actives raise or lower the signal;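 further: VCAM-1 protein level quantified by ELISA on the cells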
Activity calls are given as the source filed them. The calls were made as follows: active = hit-call score of the fitted dose curve at least 0.9, where 1 is the maximum; inactive = score below 0.9.
Tick one outcome: T = active, F = inactive

Below are worked cases with known answers.
- COMPOUND: "O=C(O)C(F)(OC(F)(F)C(F)(OC(F)(F)C(F)(OC(F)(F)C(F)(F)C(F)(F)F)C(F)(F)F)C(F)(F)F)C(F)(F)F (centres undefined)"
  ASSIGNED_LABEL: "F"
- COMPOUND: "FC(F)(F)C(F)(F)C(F)(F)CI"
  ASSIGNED_LABEL: "F"
- COMPOUND: "FC(F)(Br)C(F)(F)C(F)(F)C(F)(F)C(F)(F)C(F)(F)Br"
  ASSIGNED_LABEL: "F"
- COMPOUND: "CCCCCCCCC(F)(F)C(F)(F)C(F)(F)C(F)(F)C(F)(F)C(F)(F)F"
  ASSIGNED_LABEL: "F"
- COMPOUND: "C=CC(F)(F)C(F)(F)C(F)(F)C(F)(F)C(F)(F)C(F)(F)C(F)(F)C(F)(F)C=C"
  ASSIGNED_LABEL: "F"
- COMPOUND: "CCCCCCCOC(=O)c1ccccc1C(=O)OCCCCCCC"
  ASSIGNED_LABEL: "F"

Task item: Short answer needed: outcome of this test for "FC(F)(F)C(F)(F)C(F)(F)C(F)(F)CCI" ?
Reply: F

Task item: Next entry: "CS(C)(=O)=O"
Reply: F

----------
biological target: Estrogen receptor (Homo sapiens) (UniProt P03372); assay: OT_ER_ERaERa_1440: Odyssey Thera (OT) 24-hour HEK293T Protein-Complementation Assay for Estrogen Receptor-alpha/-alpha Homodimer (AID 2283349);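 further: hits raise fluorescence above DMSO for agonists and antagonists alike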
Sequence (P03372 whole entry, looked up): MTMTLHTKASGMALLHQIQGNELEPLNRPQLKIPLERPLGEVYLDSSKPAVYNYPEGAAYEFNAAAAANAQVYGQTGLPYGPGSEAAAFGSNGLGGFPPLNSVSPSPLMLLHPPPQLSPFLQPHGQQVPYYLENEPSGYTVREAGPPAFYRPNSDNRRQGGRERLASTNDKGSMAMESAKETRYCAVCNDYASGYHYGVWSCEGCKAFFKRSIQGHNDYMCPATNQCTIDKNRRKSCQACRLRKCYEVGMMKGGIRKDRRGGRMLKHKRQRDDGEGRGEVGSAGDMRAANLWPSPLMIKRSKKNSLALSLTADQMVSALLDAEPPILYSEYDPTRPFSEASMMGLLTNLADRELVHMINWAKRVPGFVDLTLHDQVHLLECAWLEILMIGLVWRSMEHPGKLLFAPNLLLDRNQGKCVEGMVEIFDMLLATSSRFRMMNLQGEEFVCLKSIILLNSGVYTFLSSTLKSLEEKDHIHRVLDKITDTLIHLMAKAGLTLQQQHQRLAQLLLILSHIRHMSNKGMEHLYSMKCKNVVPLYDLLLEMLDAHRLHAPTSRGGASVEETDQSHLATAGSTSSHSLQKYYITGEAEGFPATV
The source made the active and inactive calls. How the source made its calls: active means hit-call score of the fitted dose curve at least 0.9, where 1 is the maximum; inconclusive means response in the unintended direction; inactive means score below 0.9.
Tick one outcome: true (1) = active, false (0) = inactive

Below are worked cases with known answers.
- COMPOUND: "c1ccc(B(c2ccccc2)c2ccccc2)cc1"
  ASSIGNED_LABEL: "true (1)"
- COMPOUND: "[Co]"
  ASSIGNED_LABEL: "false (0)"
- COMPOUND: "COC(=O)C1CCC(C(=O)OC)CC1 (centres undefined)"
  ASSIGNED_LABEL: "false (0)"
- COMPOUND: "CC/C=C\\CCOC(C)=O"
  ASSIGNED_LABEL: "false (0)"
- COMPOUND: "O=S(=O)(O)c1ccc2ccccc2c1"
  ASSIGNED_LABEL: "false (0)"
- COMPOUND: "CC(CCl)OP(=O)(OC(C)CCl)OC(C)CCl (centres undefined)"
  ASSIGNED_LABEL: "false (0)"

Task item: Short answer needed: outcome of this test for "CCN(Cc1cccc(S(=O)(=O)O)c1)c1ccc(C(=C2C=CC(=[N+](CC)Cc3cccc(S(=O)(=O)O)c3)C=C2)c2ccc(O)cc2S(=O)(=O)[O-])cc1" ?
Reply: false (0)

Task item: Next entry: CC(Cc1ccc(O)c(O)c1)C(C)Cc1ccc(O)c(O)c1 (centres undefined)
Reply: true (1)

Task item: Next entry: "OC[C@@H](O)[C@@H](O)[C@H](O)[C@@H](O)CO"
Reply: false (0)
